Values compiled from patent US10597674B2.

# System: HPPD polypeptides (wild-type SEQ ID NO:1 and mutants)
# run-conditions: in the presence of diketonitrile (DKN), 60 μM inhibitor, high substrate concentration; kapp normalized to kapp without inhibitor

molecule	Residual activity
22 (protein, mutant HPPD polypeptide) MADLYENPMGLMGFEFIEFASPTPGTLEPIFEIMGFTKVATHRSKNVHLYRQGEINLILNNEPNSIASYFAAEHGPSVCGMAFRVKDSQKAYNRALELGAQPIHIDTGPMELNLPAIKGIGGAPLYLIDRFGEGSSIYDIDFVYLEGVERNPVGAGLKVIDHLTHNVYRGRMVYWANFYEKLFNFREARYFDIKGEYTGLTSKAMSAPDGMIRIPLNEESSKGAGQIEEFLMQFNGEGIQHVAFLTDDLVKTWDALKKIGMRFMTAPPDTYYEMLEGRLPDHGEPVDQLQARGILLDGSSVEGDKRLLLQIFSETLMGPVFFEFIQRKGDDGFGPHSFKVLFESIERDQVRRGVLTAD	n.i
